# Tested on: Trypanosoma cruzi
# experimentSummary: Inhibition of Trypanosoma cruzi recombinant trans-sialidase at 1 mM after 10 mins by MUNANA continuous fluorimetric assay
So I've got a bunch of compounds here, and I need their inhibition values.
One number for each entry, in %.

Q: Form field: reported inhibition of Nc1ccccc1-c1cn([C@@H]2O[C@H](CO)[C@H](O)[C@H](O)[C@H]2O)nn1
Ans: 30

Q: Form field: reported inhibition of COC(=O)c1cn([C@@H]2O[C@H](CO)[C@H](O)[C@H](O)[C@H]2O)nn1
Ans: 28

Q: Form field: reported inhibition of OC[C@H]1O[C@@H](n2cc(-c3ccccc3C(F)(F)F)nn2)[C@H](O)[C@@H](O)[C@H]1O
Ans: 14

Please state, for each entry, its recorded inhibition.
1. CO[C@@H]1O[C@H](Cn2cc(CC(C)O)nn2)[C@H](O)[C@H](O)[C@H]1O (mixture of isomers)
2. CO[C@@H]1O[C@H](Cn2cc(-c3ccccc3C(F)(F)F)nn2)[C@H](O)[C@H](O)[C@H]1O
3. CN(Cc1ccccc1)Cc1cn([C@@H]2O[C@H](CO)[C@H](O)[C@H](O)[C@H]2O)nn1
4. OCc1cn([C@@H]2O[C@H](CO)[C@H](O)[C@H](O)[C@H]2O)nn1
5. OCCCc1cn([C@@H]2O[C@H](CO)[C@H](O)[C@H](O)[C@H]2O)nn1
6. Nc1ccc(-c2cn([C@@H]3O[C@H](CO)[C@H](O)[C@H](O)[C@H]3O)nn2)cc1
7. OC[C@H]1O[C@@H](n2cc(COCC3CO3)nn2)[C@H](O)[C@@H](O)[C@H]1O (mixture of isomers)
8. CO[C@@H]1O[C@H](Cn2cc(Cc3ccccc3)nn2)[C@H](O)[C@H](O)[C@H]1O

Ans:
[10, 11, 22, 11, 27, 19, 27, 29]

Source of measurements: ChEMBL document CHEMBL1156196
